The origin of these recorded values is patent US20080226758A1.

- target_or_test_system: Human recombinant COX-2 (Homo sapiens)
- Sequence (P35354 18-604): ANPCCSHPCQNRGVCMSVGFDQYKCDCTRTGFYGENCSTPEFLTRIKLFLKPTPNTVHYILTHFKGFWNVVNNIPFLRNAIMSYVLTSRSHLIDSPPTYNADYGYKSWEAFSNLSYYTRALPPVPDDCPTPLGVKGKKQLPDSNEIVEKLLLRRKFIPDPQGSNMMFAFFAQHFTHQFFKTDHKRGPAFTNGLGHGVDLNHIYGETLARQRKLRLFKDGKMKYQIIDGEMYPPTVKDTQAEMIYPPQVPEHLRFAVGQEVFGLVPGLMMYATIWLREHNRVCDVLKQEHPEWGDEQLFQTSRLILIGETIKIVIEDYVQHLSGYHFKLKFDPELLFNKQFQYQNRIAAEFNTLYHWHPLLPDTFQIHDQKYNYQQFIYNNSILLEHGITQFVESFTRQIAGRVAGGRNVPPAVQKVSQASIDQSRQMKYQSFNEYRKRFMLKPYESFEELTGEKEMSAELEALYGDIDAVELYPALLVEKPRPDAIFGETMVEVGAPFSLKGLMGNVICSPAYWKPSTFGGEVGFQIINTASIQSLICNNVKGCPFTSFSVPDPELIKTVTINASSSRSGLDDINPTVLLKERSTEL
- experiment_notes: COX-2 inhibition assay (PGE2 EIA)
- experimental_conditions: human recombinant COX-2 expressed in Sf21 cells; 0.3 μM arachidonic acid
Kindly state IC50 for each of the entries shown.
Numbers only, in µM.

Observe how each entry below is paired with its result.
• O=C1OC(c2ccc(O)c(O)c2)C2COC(c3ccc(O)c(O)c3)C12 (single isomer, unassigned; (+)) [compound 1] = 90.2
• OCC1C(c2ccc(O)c(O)c2)OCC1C(O)c1ccc(O)c(O)c1 (single isomer, unassigned; (+)) [compound 2, (+)-3,3′-bisdemethyltanegool] = 73.9

Lab note: Human recombinant COX-2 (Homo sapiens) assay, enter IC50 for O=c1c(O)c(-c2ccc(O)c(O)c2)oc2cc(O)cc(O)c12 [compound 5, quercetin] here 28.6

* * *

- target_or_test_system: 15-LO (Oryctolagus cuniculus, UniProt P12530)
- Construct: endogenous in cells
- Sequence (P12530 whole entry): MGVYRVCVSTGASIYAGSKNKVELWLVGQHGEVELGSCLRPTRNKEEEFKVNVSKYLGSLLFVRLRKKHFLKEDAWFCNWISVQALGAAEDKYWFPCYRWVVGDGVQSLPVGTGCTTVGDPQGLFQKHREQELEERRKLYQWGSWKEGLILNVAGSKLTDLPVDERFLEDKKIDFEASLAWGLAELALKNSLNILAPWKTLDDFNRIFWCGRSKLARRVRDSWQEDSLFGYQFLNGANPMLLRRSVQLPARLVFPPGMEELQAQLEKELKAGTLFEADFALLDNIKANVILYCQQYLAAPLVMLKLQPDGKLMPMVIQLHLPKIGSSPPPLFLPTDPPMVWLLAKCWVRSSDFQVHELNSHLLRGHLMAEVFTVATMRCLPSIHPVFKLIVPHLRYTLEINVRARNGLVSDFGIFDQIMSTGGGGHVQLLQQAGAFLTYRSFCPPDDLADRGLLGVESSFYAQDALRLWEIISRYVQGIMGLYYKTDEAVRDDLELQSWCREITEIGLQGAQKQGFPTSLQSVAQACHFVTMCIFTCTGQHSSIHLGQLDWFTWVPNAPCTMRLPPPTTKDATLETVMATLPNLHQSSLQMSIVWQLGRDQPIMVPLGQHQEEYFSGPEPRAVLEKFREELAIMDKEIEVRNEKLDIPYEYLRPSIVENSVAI
- experiment_notes: 15-LO assay (13-HPODE, spectrophotometric)
- experimental_conditions: rabbit reticulocytes; 13-HPODE spectrophotometrically
pIC50: −log10 of the molar value.
Think of 6 as a floor: if pIC50 stands on it or above, it is criterion met; beneath it, criterion not met.

Example cases with answers are listed next.
* O=c1c(O)c(-c2ccc(O)c(O)c2)oc2cc(O)cc(O)c12 | criterion met
* O=C1OC(c2ccc(O)c(O)c2)C2COC(c3ccc(O)c(O)c3)C12 (single isomer, unassigned; (+)) | criterion met
* Oc1ccc(C2OCC3C(c4ccc(O)c(O)c4)OCC23)cc1O (stereo not shown) | criterion met
* O=c1c(O)c(-c2ccc(O)cc2)oc2cc(O)cc(O)c12 | criterion not met
* COc1cc2oc(=O)ccc2cc1O | criterion not met

Moving on to another compound below.
# bool: pIC50 of `COc1cc2ccc(=O)oc2cc1O` >= 6 criterion not met
